I'd appreciate it if you could supply IC50 values for the items below.
test: Antimitotic activity against human U373 cells by [3H]thymidine incorporation assay; type: functional, U-373MG ATCC; conditions: U373 MG, read-out: ID50 (the source's name)
Give the quantity in µM, number only.

Which IC50 reading was recorded for the molecule CCCCCCCC/C=C\CCCCCCCC(=O)N[C@H]1[C@@H](OCCCCCCCC)O[C@H](CO)[C@@H](O)[C@@H]1OS(=O)(=O)O ?
15.6

Follow-up entry: CCCCCCCC/C=C\CCCCCCCCO[C@H]1O[C@H](COS(=O)(=O)O)[C@@H](O)[C@H](O)[C@H]1NC(C)=O
13

Follow-up entry: CCCCCCCC/C=C\CCCCCCCC(=O)N[C@H]1[C@@H](OCCCCCCCC)O[C@H](CO)[C@@H](O)[C@@H]1O
13.3

Follow-up entry: CCCCCCCCCCCCCCCCO[C@H]1O[C@H](COC[C@H](O)CO)[C@@H](O)[C@H](O)[C@H]1NC(=O)CCCC
4.9

Follow-up entry: CCCCCCCC/C=C\CCCCCCCCO[C@H]1O[C@H](CO)[C@@H](O)[C@H](OS(=O)(=O)O)[C@H]1NC(C)=O
9.6

Follow-up entry: CCCCCCCC/C=C\CCCCCCCC(=O)N[C@H]1[C@@H](OCCCCCCCC)O[C@H](COCC(CO)(CO)CO)[C@@H](O)[C@@H]1O
20.6

Follow-up entry: CCCCCCCCCCCCCCCCO[C@H]1O[C@H](COCC(CO)(CO)CO)[C@@H](O)[C@H](O)[C@H]1NC(=O)CCCC
27.3

Each recorded value in this set is attributed to ChEMBL document CHEMBL1139840.
